Values were extracted from paper PMC7481290.

Assign Minimal inhibitory concentration MRSE^d to each entry below.
# Test system: Methicillin-resistant S. epidermidis ET-024
# Assay type: cell-based, Staphylococcus epidermidis
# condition.summary: Methicillin-resistant ET-024, 18 h
Non-standard residues stand in square brackets, D forms with d. Residues, ends and D or L forms follow the SMILES beside them. Gly(Nα-4-Cl-benzyl) = O=C(O)CNCc1ccc(Cl)cc1; N(4-Br-benzyl)Gly = O=C(O)CNCc1ccc(Br)cc1; Nphe = O=C(O)CNCc1ccccc1; Nlys = NCCCCNCC(=O)O
Give bare numbers, in µg/mL.

Ask: Which Minimal inhibitory concentration MRSE^d is listed for NCCCCNCC(=O)N(CC(=O)N(CCCCN)CC(=O)N(CC(=O)N(CCCCN)CC(=O)N(CC(=O)N(CCCCN)CC(=O)N(CC(=O)N(CCCCN)CC(=O)N(CC(=O)N(CCCCN)CC(=O)N(CC(N)=O)Cc1ccc(Br)cc1)Cc1ccc(Br)cc1)Cc1ccc(Br)cc1)Cc1ccc(Br)cc1)Cc1ccc(Br)cc1)Cc1ccc(Br)cc1 [Compound 31] (H-[Nlys][N(4-Br-benzyl)Gly][Nlys][N(4-Br-benzyl)Gly][Nlys][N(4-Br-benzyl)Gly][Nlys][N(4-Br-benzyl)Gly][Nlys][N(4-Br-benzyl)Gly][Nlys][N(4-Br-benzyl)Gly]-NH2) ?
Result: 4

Okay, now this molecule:
Ask: Which Minimal inhibitory concentration MRSE^d is listed for NCCCCNCC(=O)N(CC(=O)N(CCCCN)CC(=O)N(CC(=O)N(CCCCN)CC(=O)N(CC(=O)N(CCCCN)CC(=O)N(CC(=O)N(CCCCN)CC(=O)N(CC(N)=O)Cc1ccc(Cl)cc1)Cc1ccccc1)Cc1ccc(Cl)cc1)Cc1ccccc1)Cc1ccc(Cl)cc1 [Compound 25] (H-[Nlys][Gly(Nα-4-Cl-benzyl)][Nlys][Nphe][Nlys][Gly(Nα-4-Cl-benzyl)][Nlys][Nphe][Nlys][Gly(Nα-4-Cl-benzyl)]-NH2) ?
Result: 2

----------
# Tested on: Methicillin-resistant S. epidermidis ET-024
# Assay type: cell-based, Staphylococcus epidermidis
# condition.summary: Methicillin-resistant ET-024, 18 h
Non-standard residues stand in square brackets, D forms with d. Residues, ends and D or L forms follow the SMILES beside them. Gly(Nα-4-Cl-benzyl) = O=C(O)CNCc1ccc(Cl)cc1; N(4-Br-benzyl)Gly = O=C(O)CNCc1ccc(Br)cc1; N(4-F-Bzl)Gly = O=C(O)CNCc1ccc(F)cc1; Nphe = O=C(O)CNCc1ccccc1; Nlys = NCCCCNCC(=O)O
experimental.endpoint: Minimal inhibitory concentration MRSE^d (µg/mL)
Give bare numbers, in µg/mL.

Ask: Which Minimal inhibitory concentration MRSE^d is listed for NCCCCNCC(=O)N(CC(=O)N(CCCCN)CC(=O)N(CC(=O)N(CCCCN)CC(=O)N(CC(=O)N(CCCCN)CC(=O)N(CC(=O)N(CCCCN)CC(=O)N(CC(N)=O)Cc1ccc(Cl)cc1)Cc1ccc(Cl)cc1)Cc1ccc(Cl)cc1)Cc1ccc(Cl)cc1)Cc1ccc(Cl)cc1 [Compound 21] (H-[Nlys][Gly(Nα-4-Cl-benzyl)][Nlys][Gly(Nα-4-Cl-benzyl)][Nlys][Gly(Nα-4-Cl-benzyl)][Nlys][Gly(Nα-4-Cl-benzyl)][Nlys][Gly(Nα-4-Cl-benzyl)]-NH2) ?
Result: 1

Ask: Another: NCCCCNCC(=O)N(CC(=O)N(CCCCN)CC(=O)N(CC(=O)N(CCCCN)CC(=O)N(CC(=O)N(CCCCN)CC(=O)N(CC(=O)N(CCCCN)CC(=O)N(CC(N)=O)Cc1ccc(Br)cc1)Cc1ccccc1)Cc1ccc(Br)cc1)Cc1ccccc1)Cc1ccc(Br)cc1 [Compound 26] (H-[Nlys][N(4-Br-benzyl)Gly][Nlys][Nphe][Nlys][N(4-Br-benzyl)Gly][Nlys][Nphe][Nlys][N(4-Br-benzyl)Gly]-NH2)
Result: 1

Okay, now this compound:
Ask: Which Minimal inhibitory concentration MRSE^d is listed for NCCCCNCC(=O)N(CC(=O)N(CCCCN)CC(=O)N(CC(=O)N(CCCCN)CC(=O)N(CC(N)=O)Cc1ccc(F)cc1)Cc1ccccc1)Cc1ccc(F)cc1 [Compound 6] (H-[Nlys][N(4-F-Bzl)Gly][Nlys][Nphe][Nlys][N(4-F-Bzl)Gly]-NH2) ?
Result: 256
